Listed below: IC50 values for each entry.
- TARGET_OR_SYSTEM: CDK4/cyclin D1 (Homo sapiens (Human))
- Sequence (P11802 whole entry): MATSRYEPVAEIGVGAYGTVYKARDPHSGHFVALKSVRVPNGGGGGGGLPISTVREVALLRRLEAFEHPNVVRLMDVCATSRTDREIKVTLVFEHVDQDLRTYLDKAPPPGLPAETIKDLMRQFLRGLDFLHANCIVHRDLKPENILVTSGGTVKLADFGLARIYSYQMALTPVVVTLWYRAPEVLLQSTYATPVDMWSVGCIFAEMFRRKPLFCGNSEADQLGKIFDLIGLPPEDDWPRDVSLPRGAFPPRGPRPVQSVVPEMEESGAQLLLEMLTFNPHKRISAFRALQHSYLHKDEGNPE
- Sequence (P24385 whole entry partner): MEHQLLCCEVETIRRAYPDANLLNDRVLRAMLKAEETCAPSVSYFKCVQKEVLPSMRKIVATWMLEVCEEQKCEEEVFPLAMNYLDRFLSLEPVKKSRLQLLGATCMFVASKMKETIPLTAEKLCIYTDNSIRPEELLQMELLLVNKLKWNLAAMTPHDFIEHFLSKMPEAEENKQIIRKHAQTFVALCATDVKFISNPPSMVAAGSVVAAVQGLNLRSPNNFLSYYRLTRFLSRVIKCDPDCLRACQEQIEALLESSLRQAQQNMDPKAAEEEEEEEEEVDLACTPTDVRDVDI
- ASSAY_PROCEDURE: CDK4/cyclin D1 enzymatic activity assay (TR-FRET, phosphorylation of pRb at Ser780)
- Assay type: biochemical
- RUN_CONDITIONS: 0.3 nM CDK4/cyclin D1, 150 nM biotin-pRb (773-924), 3 μM ATP, 60 min at 22° C.; read-out: Biochemical CDK4 enzyme IC50
TEST_READOUT: IC50

[[record]]
compound = "CN(C)C(=O)c1cc2cnc(Nc3ccc(C(=O)N4CC5CNCC5C4)cn3)nc2n1C1CCCC1 (stereo not drawn) [Example 32]"
target_or_system = "CDK4/cyclin D1 (Homo sapiens (Human))"
test_readout = "IC50"
val = "15 to 21 nM"

[[record]]
compound = "CCOC(=O)N1C2CCC1CN(C(=O)c1ccc(Nc3ncc4cc(C(=O)N(C)C)n(C5CCCC5)c4n3)nc1)C2 [Example 64]"
target_or_system = "CDK4/cyclin D1 (Homo sapiens (Human))"
test_readout = "IC50"
val = "72 to 179 nM"

[[record]]
compound = "CC(C)N1C2CCC1CN(C(=O)c1ccc(Nc3ncc4cc(C(=O)N(C)C)n(C5CCCC5)c4n3)nc1)C2 [Example 29]"
target_or_system = "CDK4/cyclin D1 (Homo sapiens (Human))"
test_readout = "IC50"
val = "14 to 17 nM"

